# TGI values compiled below
system: SK-MEL-2 melanoma; assay: NCI tumour cell line growth inhibition, 48 h
Express the result in µM but write the number alone.

Solved cases (5 shown):
| COMPOUND | VALUE UNIT | TGI |
| --- | --- | --- |
| CN(C)C(=S)/N=c1\ssc(=S)n1Cc1cccs1 | µM | 25.7 |
| CC(CN(C)C)S(=O)(=O)c1ccc(-c2cnc(N)c(C(=O)Nc3ccccc3)n2)cc1 (configuration not stated) | µM | 17.6 |
| C=C1C(=O)O[C@H]2[C@H]1CC/C(COC(=O)c1cn(C)c3ccccc13)=C\CC[C@@]1(C)O[C@@H]21 | µM | 2.82 |
| CC/C=C\C[C@H](O)C/C=C1/C(=O)C=C[C@@H]1C/C=C\CCCC(=O)OC(C)C | µM | 4.77 |
| COC1=CC(=O)C(Br)=CC1=O | µM | 45.7 |

*Q* Suppose we examine the compound CN(C)CCNC(=O)c1cccc2nc3ccc4cccnc4c3nc12 ; what TGI value has been reported?
*A* 2.11

*Q* Suppose we examine the compound COc1cc2c(c(O)c1C)C(=O)CC(c1ccccc1)O2 (configuration not stated) ; what TGI value has been reported?
*A* 95.4

*Q* Suppose we examine the compound O=c1nc(NC(c2ccccc2)(c2ccccc2)c2ccccc2)ccn1CCCl ; what TGI value has been reported?
*A* 29.9

Just for reference, PubChem BioAssay (NCI) is where these values come from.
